The values you see were collected from ChEMBL document CHEMBL1121828.

Listed here: compounds with reported Log 1/Ki app for Dihydrofolate reductase (Bos taurus).
VALUE_TYPE: Log 1/Ki app

* Cc1ccc(Cc2cnc(N)nc2N)cc1 | 4.8
* COCc1cccc(Cc2cnc(N)nc2N)c1 | 5.49
* CCCCOc1ccc(Cc2cnc(N)nc2N)cc1 | 5.74
* COCCOc1c(OC)cc(Cc2cnc(N)nc2N)cc1OC | 4.88
* Nc1ncc(Cc2cccc(O)c2)c(N)n1 | 4.88
* CC(=O)Nc1ccc(Cc2cnc(N)nc2N)cc1[N+](=O)[O-] | 5.16
* Nc1ncc(Cc2cccc(CO)c2)c(N)n1 | 5.2
* Nc1ccc(Cc2cnc(N)nc2N)cc1 | 4.57
* Nc1ncc(Cc2cccc(C(F)(F)F)c2)c(N)n1 | 5.53
* COc1ccc(Cc2cnc(N)nc2N)cc1OC | 5.15
* Nc1ncc(Cc2ccc(OC(F)(F)F)cc2)c(N)n1 | 5.42
* CCCCOCc1cccc(Cc2cnc(N)nc2N)c1 | 5.86
* Nc1ncc(Cc2cccc(I)c2)c(N)n1 | 6.15
* CS(=O)(=O)Oc1cccc(Cc2cnc(N)nc2N)c1 | 5.58
